Cited source: PubChem BioAssay (EPA / NIEHS)

- assay.summary: ATG_VDRE_CIS: Attagene CIS-FACTORIAL HepG2 Assay for human Vitamin D Receptor Element (VDRE) (AID 2282968)
- assay.conditions: HepG2 VDRE cis-reporter transcription, actives raise or lower the signal
Activity calls are given as the source filed them. How the source made its calls: active means hit-call score of the fitted dose curve at least 0.9, where 1 is the maximum; inactive means score below 0.9.
Write down one outcome, taken from t for active, f for inactive

Dear colleague, could you share the recorded outcome for COC(=O)CCC(=O)OC when you have a moment?
f

Dear colleague, could you share the recorded outcome for CCCCC(CC)CO (stereo not given) when you have a moment?
f

Dear colleague, could you share the recorded outcome for S=c1[nH]c2ccccc2s1 when you have a moment?
f

Dear colleague, could you share the recorded outcome for CN(C)C(=O)NC1(c2ccccc2)CCN(CCC[C@]2(c3ccc(Cl)c(Cl)c3)CCCN(C(=O)c3ccccc3)C2)CC1 when you have a moment?
t

Dear colleague, could you share the recorded outcome for CC(=O)S[C@H](C(=O)N[C@H]1Cc2ccccc2[C@H]2CCC[C@@H](C(=O)O)N2C1=O)C(C)C when you have a moment?
f

Dear colleague, could you share the recorded outcome for CCCCCCCCCC[N+](C)(C)[O-] when you have a moment?
f

Dear colleague, could you share the recorded outcome for c1ccc2occc2c1 when you have a moment?
f

Dear colleague, could you share the recorded outcome for CC(C)c1cccc(C(C)C)c1NC(=O)NS(=O)(=O)c1cc(C(C)(C)O)co1 when you have a moment?
t

Dear colleague, could you share the recorded outcome for CN(C)CCCN1c2ccccc2Sc2ccc(Cl)cc21 when you have a moment?
t

Dear colleague, could you share the recorded outcome for CCCCCCCCCCCCCCCCO when you have a moment?
f

---

- Read-out: Cytochrome P450 3A4 (Homo sapiens) (UniProt P08684)
- Sequence (P08684 whole entry, looked up): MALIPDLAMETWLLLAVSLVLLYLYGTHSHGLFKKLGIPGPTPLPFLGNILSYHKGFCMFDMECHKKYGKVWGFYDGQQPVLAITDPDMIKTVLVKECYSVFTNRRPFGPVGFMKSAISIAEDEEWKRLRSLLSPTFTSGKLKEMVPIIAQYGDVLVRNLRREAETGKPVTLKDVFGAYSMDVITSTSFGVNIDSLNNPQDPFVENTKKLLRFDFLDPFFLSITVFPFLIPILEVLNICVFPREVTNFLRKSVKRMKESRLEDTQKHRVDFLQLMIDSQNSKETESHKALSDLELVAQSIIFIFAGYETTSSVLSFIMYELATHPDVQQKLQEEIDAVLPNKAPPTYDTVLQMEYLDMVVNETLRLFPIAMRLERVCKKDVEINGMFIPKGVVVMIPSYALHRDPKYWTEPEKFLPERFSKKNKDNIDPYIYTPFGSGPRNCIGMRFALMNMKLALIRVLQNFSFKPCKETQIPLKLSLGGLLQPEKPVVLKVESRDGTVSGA
- assay.summary: LTEA_HepaRG_CYP3A4: Life Technologies and Expression Analysis (LTEA) Assay for CYP3A4 using HepaRG (AID 2283487)
- assay.conditions: mRNA level, 48 h; actives raise or lower the signal
- Protocol: LTEA_HepaRG is a cell based, multiplexed-readout assay that uses HepaRG, a human liver cell line, with measurements taken at 48 hours after chemical dosing on a 96-well plate.LTEA_HepaRG_CYP3A4 is one of 102 assay component(s) measured in the LTEA HepaRG cell culture assay. It is a marker of NR mediated metabolism.Data from the assay component LTEA_HepaRG_CYP3A4 was analyzed into 1 endpoint. […]
Calls of active or inactive are those of the source. The calls were made as follows: active = hit-call score of the fitted dose curve at least 0.9, where 1 is the maximum; inactive = score below 0.9.
Write down one outcome, taken from y = active, n = inactive

Dear colleague, could you share the recorded outcome for CCCCOC(=O)CCCCC(=O)OCCCC when you have a moment?
n

Dear colleague, could you share the recorded outcome for CC(=O)O when you have a moment?
n

Dear colleague, could you share the recorded outcome for CC1=C(C)S(=O)(=O)CCS1(=O)=O when you have a moment?
y

Dear colleague, could you share the recorded outcome for NC=O when you have a moment?
n

Dear colleague, could you share the recorded outcome for O=C(O)CN(CC(=O)O)CC(=O)O when you have a moment?
n

Dear colleague, could you share the recorded outcome for CC(C)(O)c1ccc(CNC(=O)c2cccnc2Oc2ccc(F)cc2)cc1 when you have a moment?
y

Dear colleague, could you share the recorded outcome for CCCCCCC(C=O)=Cc1ccccc1 when you have a moment?
n

Dear colleague, could you share the recorded outcome for CC(C)c1cccc(C(C)C)c1 when you have a moment?
n

Dear colleague, could you share the recorded outcome for CCCCC(CC)COP(=O)(OCC(CC)CCCC)OCC(CC)CCCC (centres undefined) when you have a moment?
y

Dear colleague, could you share the recorded outcome for Cc1cc(SC2=C(O)C[C@@](CCc3ccc(N)cc3)(C(C)C)OC2=O)c(C(C)(C)C)cc1CO when you have a moment?
y

Dear colleague, could you share the recorded outcome for CCC(C)N(C)C(=O)c1cc2ccccc2c(-c2ccccc2Cl)n1 (centres undefined) when you have a moment?
y

Dear colleague, could you share the recorded outcome for CCCC[C@H]1CN(CC2CCOCC2)C(=O)OC12CCN(C1(C)CCN(C(=O)c3c(C)ncnc3C)CC1)CC2 when you have a moment?
n

Dear colleague, could you share the recorded outcome for Cc1occc(=O)c1O when you have a moment?
n

Dear colleague, could you share the recorded outcome for O=C(N[C@@H](c1ccccc1)[C@@H]1CCCCN1)c1cccc(C(F)(F)F)c1Cl when you have a moment?
y

Dear colleague, could you share the recorded outcome for C#CC(O)C(CC)CCCC (centres undefined) when you have a moment?
n

Dear colleague, could you share the recorded outcome for COC(=O)CCC(=O)OC when you have a moment?
n

Dear colleague, could you share the recorded outcome for O=C1CCCCC1 when you have a moment?
n

Dear colleague, could you share the recorded outcome for NC(=Nc1ccccc1)Nc1ccccc1 when you have a moment?
n

Dear colleague, could you share the recorded outcome for OCC(CO)n1cnc(-c2ccc(F)cc2)c1-c1ccnc(Oc2ccccc2)n1 when you have a moment?
y

Dear colleague, could you share the recorded outcome for CCCCCCCC(=O)OC when you have a moment?
n

Dear colleague, could you share the recorded outcome for COC(=O)CCCC(=O)OC when you have a moment?
n

Dear colleague, could you share the recorded outcome for OCC(O)CO when you have a moment?
n

Dear colleague, could you share the recorded outcome for O=C1c2c(O)cccc2Cc2cccc(O)c21 when you have a moment?
n

Dear colleague, could you share the recorded outcome for CSc1ccc(Oc2ccc(S(N)(=O)=O)cc2CN(C)C)cc1C when you have a moment?
y

Dear colleague, could you share the recorded outcome for O=NO when you have a moment?
n

Dear colleague, could you share the recorded outcome for CCCCC(CC)COC(=O)CCCCCCCC(=O)OCC(CC)CCCC (centres undefined) when you have a moment?
n

Dear colleague, could you share the recorded outcome for CCCCCCCCCCCCCCOS(=O)(=O)O when you have a moment?
n

Dear colleague, could you share the recorded outcome for Oc1ccccc1O when you have a moment?
n

Dear colleague, could you share the recorded outcome for Cc1ccc(C(C)(C)C)c(O)c1 when you have a moment?
n
